- measured.target: Serine/threonine-protein kinase mTOR (Homo sapiens)
- assay.text: Inhibition of recombinant human N-terminal FLAG-tagged mTOR (1362 to end residues) using Ulight-4E-BP1 as substrate incubated for 30 mins by fluorescence assay
The entries below come with measured IC50 values attached.

Below are worked cases with known answers.
Consider the compound shown here: COc1ncc(-c2ccc3c(c2)N(C2CCCCC2)C(=O)CO3)cc1NS(=O)(=O)c1ccc(F)cc1 What is its recorded IC50? 873 nM

Consider the compound shown here: O=C1COc2ccc(-c3cnc4ccccc4c3)cc2N1C1CCCCC1 What is its recorded IC50? > 1000 nM

Consider the compound shown here: O=C1COc2ccc(-c3cnc4ccccc4c3)cc2N1C1CC1 What is its recorded IC50? > 1000 nM

Then this compound:
Consider the compound shown here: O=C1COc2ccc(-c3cnc(Cl)c(NS(=O)(=O)c4ccc(F)cc4)c3)cc2N1c1ccccc1 What is its recorded IC50? 15.3 nM

Values were extracted from ChEMBL document CHEMBL4364276.
